- test.target: PKG1A (Homo sapiens, UniProt Q13976)
- Construct: gene PRKG1; isoform 1 alpha
- Sequence (Q13976 whole entry, canonical isoform): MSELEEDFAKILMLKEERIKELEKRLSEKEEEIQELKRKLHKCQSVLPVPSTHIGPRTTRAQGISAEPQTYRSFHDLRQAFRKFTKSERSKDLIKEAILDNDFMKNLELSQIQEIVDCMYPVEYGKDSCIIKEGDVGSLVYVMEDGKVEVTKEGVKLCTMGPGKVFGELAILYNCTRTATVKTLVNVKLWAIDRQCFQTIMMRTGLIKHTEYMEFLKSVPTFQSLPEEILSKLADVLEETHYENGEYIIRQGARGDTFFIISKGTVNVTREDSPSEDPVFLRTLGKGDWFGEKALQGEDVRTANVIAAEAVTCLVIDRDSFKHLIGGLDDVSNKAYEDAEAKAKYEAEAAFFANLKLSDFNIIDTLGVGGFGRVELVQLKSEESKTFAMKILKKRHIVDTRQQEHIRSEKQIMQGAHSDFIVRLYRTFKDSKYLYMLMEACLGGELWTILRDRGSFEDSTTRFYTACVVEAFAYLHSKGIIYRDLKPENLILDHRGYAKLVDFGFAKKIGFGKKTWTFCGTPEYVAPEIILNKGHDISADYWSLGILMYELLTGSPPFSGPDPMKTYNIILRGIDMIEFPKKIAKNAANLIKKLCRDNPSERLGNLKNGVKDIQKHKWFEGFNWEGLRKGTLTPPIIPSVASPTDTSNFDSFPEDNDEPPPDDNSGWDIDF
- experiment.notes: biochemical
- Parameters: Kinase selectivity panel, IC50 of AC484 (Supplementary Table 1)
pIC50: −log10 of the molar value.
measure: pIC50

Problem: Give pIC50 only, for `CC(C)CCN[C@@H]1CCc2cc(O)c(N3CC(=O)NS3(=O)=O)c(F)c2C1` , using PKG1A (Homo sapiens, UniProt Q13976) data.
Solution: < 5.00

###

- test.target: LYN-B (Homo sapiens)
- Construct: isoform B
- Sequence (P07948 whole entry, canonical isoform): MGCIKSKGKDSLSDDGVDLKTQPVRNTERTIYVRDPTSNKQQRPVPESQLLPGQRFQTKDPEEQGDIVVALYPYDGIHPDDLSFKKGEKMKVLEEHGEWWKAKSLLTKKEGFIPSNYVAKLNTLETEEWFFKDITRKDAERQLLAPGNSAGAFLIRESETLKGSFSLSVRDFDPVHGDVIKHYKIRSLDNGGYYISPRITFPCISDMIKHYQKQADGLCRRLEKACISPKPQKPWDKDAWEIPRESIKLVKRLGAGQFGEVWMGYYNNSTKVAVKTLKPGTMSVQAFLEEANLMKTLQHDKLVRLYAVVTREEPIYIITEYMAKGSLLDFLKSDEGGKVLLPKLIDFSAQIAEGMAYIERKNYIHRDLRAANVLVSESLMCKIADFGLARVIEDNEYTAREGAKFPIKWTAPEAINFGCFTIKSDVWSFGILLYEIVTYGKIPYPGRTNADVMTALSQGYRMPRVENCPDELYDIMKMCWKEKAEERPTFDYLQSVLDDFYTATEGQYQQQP
- experiment.notes: biochemical
measure: IC50

Problem: Give IC50 only, for `CC(C)CCN[C@@H]1CCc2cc(O)c(N3CC(=O)NS3(=O)=O)c(F)c2C1` , using LYN-B (Homo sapiens) data.
Solution: > 10 µM

###

Sequence of the target: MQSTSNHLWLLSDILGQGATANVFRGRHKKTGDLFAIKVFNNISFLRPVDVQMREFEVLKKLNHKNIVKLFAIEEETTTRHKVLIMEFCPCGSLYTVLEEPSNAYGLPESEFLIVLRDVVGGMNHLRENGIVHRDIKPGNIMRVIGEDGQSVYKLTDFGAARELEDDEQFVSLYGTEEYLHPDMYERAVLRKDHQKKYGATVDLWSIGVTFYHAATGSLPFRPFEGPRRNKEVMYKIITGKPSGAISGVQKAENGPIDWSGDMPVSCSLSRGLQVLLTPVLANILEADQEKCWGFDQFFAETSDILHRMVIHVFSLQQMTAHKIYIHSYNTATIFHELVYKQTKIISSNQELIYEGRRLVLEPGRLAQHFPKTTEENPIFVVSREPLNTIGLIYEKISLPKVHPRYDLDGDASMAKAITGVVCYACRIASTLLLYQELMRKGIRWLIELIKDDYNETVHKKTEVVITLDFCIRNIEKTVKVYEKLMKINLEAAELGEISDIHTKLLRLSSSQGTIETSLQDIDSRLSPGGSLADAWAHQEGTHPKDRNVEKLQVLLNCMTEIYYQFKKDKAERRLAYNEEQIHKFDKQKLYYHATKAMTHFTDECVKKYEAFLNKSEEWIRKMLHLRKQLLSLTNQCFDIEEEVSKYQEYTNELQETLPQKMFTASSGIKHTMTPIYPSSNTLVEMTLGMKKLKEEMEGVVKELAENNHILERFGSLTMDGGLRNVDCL
pIC50: −log10 of the molar value.
measure: pIC50

Problem: Give recorded pIC50. `CC(C)CCN[C@@H]1CCc2cc(O)c(N3CC(=O)NS3(=O)=O)c(F)c2C1`
Solution: < 5.00

###

- test.target: Abl (Homo sapiens, UniProt P00519)
- Sequence (P00519 whole entry): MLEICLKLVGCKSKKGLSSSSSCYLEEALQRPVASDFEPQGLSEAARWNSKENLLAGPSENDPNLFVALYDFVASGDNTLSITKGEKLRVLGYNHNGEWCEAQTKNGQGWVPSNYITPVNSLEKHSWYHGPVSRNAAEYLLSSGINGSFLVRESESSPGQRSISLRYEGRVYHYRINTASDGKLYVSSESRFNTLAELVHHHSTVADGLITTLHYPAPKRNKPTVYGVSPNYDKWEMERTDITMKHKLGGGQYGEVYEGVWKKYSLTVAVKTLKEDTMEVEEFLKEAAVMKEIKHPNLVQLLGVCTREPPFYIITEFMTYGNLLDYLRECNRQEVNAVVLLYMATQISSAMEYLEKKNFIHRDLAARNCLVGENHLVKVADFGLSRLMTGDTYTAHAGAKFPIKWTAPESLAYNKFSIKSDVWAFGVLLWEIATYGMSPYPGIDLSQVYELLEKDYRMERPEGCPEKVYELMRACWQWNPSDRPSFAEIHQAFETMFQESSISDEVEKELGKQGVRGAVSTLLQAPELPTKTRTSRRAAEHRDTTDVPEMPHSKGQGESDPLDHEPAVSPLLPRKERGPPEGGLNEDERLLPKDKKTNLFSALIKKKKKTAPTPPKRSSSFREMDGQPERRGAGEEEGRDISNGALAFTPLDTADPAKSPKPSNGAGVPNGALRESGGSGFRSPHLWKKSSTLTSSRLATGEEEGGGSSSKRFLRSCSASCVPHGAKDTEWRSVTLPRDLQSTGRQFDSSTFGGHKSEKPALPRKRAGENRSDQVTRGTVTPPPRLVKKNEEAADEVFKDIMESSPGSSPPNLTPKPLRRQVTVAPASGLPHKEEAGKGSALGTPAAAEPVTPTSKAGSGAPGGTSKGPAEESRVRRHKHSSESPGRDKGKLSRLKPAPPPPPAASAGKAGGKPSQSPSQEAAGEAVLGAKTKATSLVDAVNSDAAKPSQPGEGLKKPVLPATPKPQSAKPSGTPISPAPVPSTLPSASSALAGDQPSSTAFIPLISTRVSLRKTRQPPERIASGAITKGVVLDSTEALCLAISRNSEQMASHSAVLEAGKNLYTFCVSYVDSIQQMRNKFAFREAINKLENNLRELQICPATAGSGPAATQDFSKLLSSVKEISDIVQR
pIC50: −log10 of the molar value.
measure: pIC50

Problem: Give pIC50 only, for CC(C)CCN[C@@H]1CCc2cc(O)c(N3CC(=O)NS3(=O)=O)c(F)c2C1 [AC484, ABBV-CLS-484] , using Abl (Homo sapiens, UniProt P00519) data.
Solution: < 5.00

###

- test.target: Aurora 1 (Homo sapiens)
- Sequence (Q96GD4 whole entry): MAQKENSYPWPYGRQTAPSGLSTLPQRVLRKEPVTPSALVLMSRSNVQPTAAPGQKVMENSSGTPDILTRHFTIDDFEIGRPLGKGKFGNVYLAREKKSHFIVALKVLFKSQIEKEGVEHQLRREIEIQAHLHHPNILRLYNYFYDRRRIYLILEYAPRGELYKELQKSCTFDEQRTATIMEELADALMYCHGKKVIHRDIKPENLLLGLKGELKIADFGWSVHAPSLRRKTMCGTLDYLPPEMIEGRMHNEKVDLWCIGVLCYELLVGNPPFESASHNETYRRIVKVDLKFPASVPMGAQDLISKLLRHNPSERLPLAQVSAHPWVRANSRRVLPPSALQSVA
measure: IC50

Problem: Give IC50 only, for `CC(C)CCN[C@@H]1CCc2cc(O)c(N3CC(=O)NS3(=O)=O)c(F)c2C1` , using Aurora 1 (Homo sapiens) data.
Solution: > 10 µM

###

- test.target: EGFR (Homo sapiens)
- Sequence (P00533 whole entry): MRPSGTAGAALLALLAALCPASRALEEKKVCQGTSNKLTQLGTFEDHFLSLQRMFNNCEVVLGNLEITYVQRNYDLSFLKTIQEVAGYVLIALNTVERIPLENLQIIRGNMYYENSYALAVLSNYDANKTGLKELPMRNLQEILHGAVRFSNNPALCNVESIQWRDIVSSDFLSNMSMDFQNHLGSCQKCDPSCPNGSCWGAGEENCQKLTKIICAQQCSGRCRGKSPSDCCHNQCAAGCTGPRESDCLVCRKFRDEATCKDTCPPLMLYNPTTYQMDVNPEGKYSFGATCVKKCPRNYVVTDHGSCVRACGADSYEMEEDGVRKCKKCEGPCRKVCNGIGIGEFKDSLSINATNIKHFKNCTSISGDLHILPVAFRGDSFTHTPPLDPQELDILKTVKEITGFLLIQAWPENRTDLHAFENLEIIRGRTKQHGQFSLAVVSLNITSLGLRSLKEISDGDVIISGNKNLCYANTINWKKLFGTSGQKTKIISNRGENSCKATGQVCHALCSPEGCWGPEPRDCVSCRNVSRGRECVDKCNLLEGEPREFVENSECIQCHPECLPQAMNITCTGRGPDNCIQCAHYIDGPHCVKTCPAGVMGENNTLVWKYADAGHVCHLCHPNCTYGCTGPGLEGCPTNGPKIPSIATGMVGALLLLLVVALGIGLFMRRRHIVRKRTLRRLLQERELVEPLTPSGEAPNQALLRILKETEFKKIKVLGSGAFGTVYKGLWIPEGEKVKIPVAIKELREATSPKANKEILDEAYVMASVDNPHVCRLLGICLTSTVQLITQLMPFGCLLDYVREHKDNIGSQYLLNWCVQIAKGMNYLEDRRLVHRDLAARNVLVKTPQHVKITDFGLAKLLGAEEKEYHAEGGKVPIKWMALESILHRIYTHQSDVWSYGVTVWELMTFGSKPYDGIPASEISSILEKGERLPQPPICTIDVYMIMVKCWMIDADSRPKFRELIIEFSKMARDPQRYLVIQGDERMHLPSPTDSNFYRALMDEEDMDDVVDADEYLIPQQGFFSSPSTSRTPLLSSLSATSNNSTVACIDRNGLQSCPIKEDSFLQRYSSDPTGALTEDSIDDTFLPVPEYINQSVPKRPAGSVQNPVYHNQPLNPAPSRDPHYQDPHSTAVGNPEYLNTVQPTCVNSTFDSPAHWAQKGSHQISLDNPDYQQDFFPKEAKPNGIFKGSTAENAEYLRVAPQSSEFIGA
pIC50: −log10 of the molar value.
measure: pIC50

Problem: Give pIC50 only, for `CC(C)CCN[C@@H]1CCc2cc(O)c(N3CC(=O)NS3(=O)=O)c(F)c2C1` , using EGFR (Homo sapiens) data.
Solution: < 5.00

###

- test.target: Syk (Homo sapiens)
pIC50: −log10 of the molar value.
measure: pIC50

Problem: Give recorded pIC50. CC(C)CCN[C@@H]1CCc2cc(O)c(N3CC(=O)NS3(=O)=O)c(F)c2C1 [AC484, ABBV-CLS-484]
Solution: < 5.00

###

- test.target: LTK (Homo sapiens)
- Sequence (P29376 whole entry): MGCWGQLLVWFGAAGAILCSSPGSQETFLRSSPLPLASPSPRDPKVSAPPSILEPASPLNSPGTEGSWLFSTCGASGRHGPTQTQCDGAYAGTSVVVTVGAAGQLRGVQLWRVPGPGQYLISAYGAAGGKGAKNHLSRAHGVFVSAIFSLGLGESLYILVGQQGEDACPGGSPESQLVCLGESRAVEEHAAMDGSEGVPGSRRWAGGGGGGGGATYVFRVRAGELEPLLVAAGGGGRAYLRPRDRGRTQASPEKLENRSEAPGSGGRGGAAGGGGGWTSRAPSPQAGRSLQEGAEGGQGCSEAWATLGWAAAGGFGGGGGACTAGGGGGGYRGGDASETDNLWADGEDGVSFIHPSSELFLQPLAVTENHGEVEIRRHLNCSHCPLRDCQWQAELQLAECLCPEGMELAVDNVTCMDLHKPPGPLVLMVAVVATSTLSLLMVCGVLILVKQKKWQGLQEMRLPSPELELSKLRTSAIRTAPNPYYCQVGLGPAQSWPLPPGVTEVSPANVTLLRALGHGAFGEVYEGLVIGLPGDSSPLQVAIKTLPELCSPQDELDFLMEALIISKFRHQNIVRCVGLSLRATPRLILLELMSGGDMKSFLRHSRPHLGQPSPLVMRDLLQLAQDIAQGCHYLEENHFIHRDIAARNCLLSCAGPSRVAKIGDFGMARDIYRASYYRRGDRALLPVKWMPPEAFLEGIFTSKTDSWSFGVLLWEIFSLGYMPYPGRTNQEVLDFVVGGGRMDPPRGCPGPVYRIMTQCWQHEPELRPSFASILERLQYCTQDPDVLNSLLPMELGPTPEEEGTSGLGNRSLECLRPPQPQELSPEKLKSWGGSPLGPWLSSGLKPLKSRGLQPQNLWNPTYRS
pIC50: −log10 of the molar value.
measure: pIC50

Problem: Give recorded pIC50. CC(C)CCN[C@@H]1CCc2cc(O)c(N3CC(=O)NS3(=O)=O)c(F)c2C1 [AC484, ABBV-CLS-484]
Solution: < 5.00

###

Target sequence: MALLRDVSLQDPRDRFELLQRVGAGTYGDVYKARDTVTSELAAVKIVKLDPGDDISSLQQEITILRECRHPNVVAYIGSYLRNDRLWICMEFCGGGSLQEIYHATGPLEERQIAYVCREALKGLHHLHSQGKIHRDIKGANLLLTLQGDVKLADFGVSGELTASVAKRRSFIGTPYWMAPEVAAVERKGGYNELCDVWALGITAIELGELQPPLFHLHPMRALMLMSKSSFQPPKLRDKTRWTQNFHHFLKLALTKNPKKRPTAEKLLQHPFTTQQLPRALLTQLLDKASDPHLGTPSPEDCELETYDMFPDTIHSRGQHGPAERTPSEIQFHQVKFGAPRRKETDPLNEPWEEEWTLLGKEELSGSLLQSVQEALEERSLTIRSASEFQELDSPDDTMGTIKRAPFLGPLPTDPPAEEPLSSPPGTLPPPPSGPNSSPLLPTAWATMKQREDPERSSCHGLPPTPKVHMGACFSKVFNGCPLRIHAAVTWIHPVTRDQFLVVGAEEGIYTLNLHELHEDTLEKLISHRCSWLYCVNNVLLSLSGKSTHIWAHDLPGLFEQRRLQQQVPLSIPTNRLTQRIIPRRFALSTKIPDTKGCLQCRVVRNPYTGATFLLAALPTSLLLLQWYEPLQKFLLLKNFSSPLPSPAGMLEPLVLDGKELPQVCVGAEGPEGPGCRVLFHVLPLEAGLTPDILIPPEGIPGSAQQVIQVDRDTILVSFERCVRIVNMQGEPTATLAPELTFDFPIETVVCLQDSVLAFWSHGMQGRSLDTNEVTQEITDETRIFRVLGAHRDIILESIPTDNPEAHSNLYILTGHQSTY
pIC50: −log10 of the molar value.
measure: pIC50

Problem: Give recorded pIC50. `CC(C)CCN[C@@H]1CCc2cc(O)c(N3CC(=O)NS3(=O)=O)c(F)c2C1`
Solution: < 5.00
